Please go through the items and note down their growth.
Test system: SNB-19 CNS
Run description: NCI-60 one-dose screen, 48 h (100 = growth as untreated, 0 = no growth, -100 = all killed)
Applied conditions: 10 µM unless noted
The panel holds about 83,000 compounds, 20% with a hit somewhere; the sample as a whole holds those more often. The source made the active and inactive calls. The calls were made as follows: active = growth percent below 10; inactive = the rest.

Worked examples follow.
COC(=O)/C=C/c1c(C2(C)NC(=O)c3ccccc3N2)c(=O)oc2ccc(Cl)cc12 (centres undefined) | 90.7% (inactive)
Cc1ccc(C(=O)NN2C(=O)/C(=C/C=C/c3ccco3)SC2=S)cc1 | 94.9% (inactive)
CCOP(=O)(OCC)OC[C@]12CCC(C)(C)C=C1[C@H]1CC[C@@H]3[C@@]4(C)CC[C@H](OP(=O)(OCC)OCC)C(C)(C)[C@@H]4CC[C@@]3(C)[C@]1(C)CC2 | -12.4% (active)
CC(=O)c1cc(C(=O)c2ccc(Br)cc2)n2cc(C)cc(C)c12 | 90.5% (inactive)
C#CCn1cccc1CNc1ccc(OC)cc1 | -90.1% (active)

Report growth for each item below.
1. O=C1[C@H]2Cc3c([nH]c4ccccc34)[C@@H](c3ccc(Br)cc3)N2C(=O)CN1C1CCN(CC2CCCCC2)CC1
2. NS(=O)(=O)c1ccc(Nc2nc(N/N=C/c3ccc(Cl)cc3)nc(Nc3ccccc3)n2)cc1
3. NS(=O)(=O)c1ccc(Nc2nc(SCc3ccccc3)nc3ccccc23)cc1
4. CC(=O)c1nnn(-c2c(C(=O)n3nc(C)cc3C)sc(=S)n2-c2ccccc2)c1C

Result string:
4.34% (active)
81.8% (inactive)
78.2% (inactive)
99.1% (inactive)

====

Test system: IGROV1 ovarian
Run description: NCI-60 one-dose screen, 48 h (100 = growth as untreated, 0 = no growth, -100 = all killed)
Applied conditions: 10 µM unless noted
About 83,000 compounds went through this panel and 20% of them were active in at least one assay; those are over-represented in the sample as a whole.
Range-based classes on measured growth: bottom end (below 30%), midrange (30% to below 90%), top end (90% or more)

CCn1c(SCC(=O)Nc2cccc(C(=O)/C=C/c3ccc(Br)cc3)c2)nc2ccccc2c1=O | midrange
CCNC(=O)N1CCc2cc(OC)c(OCCc3ccc(OC)cc3)cc2C1c1ccc(OC)cc1C (centres undefined) | bottom end
N/C(=N\C(N)=N\c1nc2ccccc2s1)c1ccncc1Cl | midrange
O=C(CSc1nnc(-c2ccc(Cl)cc2)n1-c1ccccc1)Nc1ccc(Br)cc1 | bottom end

Query string: # bin label for COc1ccc(CCN2C(=O)CSC2=S)cc1
Result string: top end

Query string: # bin label for N#Cc1c(NC(=O)c2cccc(C(F)(F)F)c2F)sc2c1CCC(=O)C2
Result string: bottom end

Query string: # bin label for Clc1cccc(/C=N/Nc2nc(N/N=C/c3cccc(Cl)c3Cl)nc(N3CCCCC3)n2)c1Cl
Result string: midrange

Query string: # bin label for COc1cc2nc(Cl)nc(Nc3cccc(C4=Nc5c(N)nc(N)nc5NC(c5ccc(Br)cc5)C4)c3)c2cc1OC (centres undefined)
Result string: top end

Query string: # bin label for O=C(c1ccc(O)cc1)[C@@H]1CN[C@@]2(C(=O)Nc3ccccc32)[C@H]1c1ccc(F)cc1
Result string: top end

====

Tested on: T-47D breast
Run description: NCI-60 one-dose screen, 48 h (100 = growth as untreated, 0 = no growth, -100 = all killed)
Applied conditions: 10 µM unless noted
Description: Growth inhibition of the T-47D human tumor cell line is measured as a screen for anti-cancer activity. Cells are grown in 96 well plates and exposed to the test compound for 48 hours. Compounds are tested at a single concentration, which is 10^-5 M for most compounds. The reported endpoint is percent growth (GI% or GIPRCNT), where numbers from 0 - 100% represent growth inhibition, and numbers from -100% - 0 represent cell death. For example, a value of 40 represents 60% growth inhibition. […]
The panel holds about 83,000 compounds, 20% with a hit somewhere; the sample as a whole holds those more often.
Range-based classes on measured growth: bin A (below 60%), bin B (60% to below 80%), bin C (80% or more)

A selection of reference data follows.
CCN1CCN(Cc2cn(-c3ccc(S(N)(=O)=O)cc3)nn2)CC1 | bin C
COc1ccc(C(=O)CSc2nc3c(c(Nc4ccc(S(N)(=O)=O)cc4)n2)CCCC3)cc1 | bin B
Cc1ccc2sc3c(c2c1)OC(N)=C(C#N)C3c1ccc(Cl)cc1 (centres undefined) | bin A

Query string: # bin label for Cc1ccc(-n2cc(/C=N/NC(=O)c3nc(N)n[nH]3)c(-c3ccc(S(C)(=O)=O)cc3)n2)cc1
Result string: bin C

Query string: # bin label for COc1ccc(OC)c(-c2nc(SCC(=O)c3ccc(Br)cc3)nc(Nc3ccc(S(N)(=O)=O)cc3)c2C#N)c1
Result string: bin B

Query string: # bin label for O=C(CCn1c[n+](CC(=O)c2ccc(F)cc2)c2ccccc21)Nc1cccc2cccnc12
Result string: bin A

Query string: # bin label for NC(N)=Nc1ccc(Nc2cccc(Oc3ccc(Cl)c(C(F)(F)F)c3)c2)cn1
Result string: bin A

Query string: # bin label for Cc1nn(-c2ccccc2)c2ncnc(N/N=C/c3ccccc3)c12
Result string: bin B

====

System: SK-MEL-2 melanoma
Run description: NCI-60 one-dose screen, 48 h (100 = growth as untreated, 0 = no growth, -100 = all killed)
Applied conditions: 10 µM unless noted
The panel holds about 83,000 compounds, 20% with a hit somewhere; the sample as a whole holds those more often.
Parameter: growth (%)
One number for each entry, in %.

COc1cc(-c2nc3sccn3c2-c2ccnc(S(C)(=O)=O)n2)ccc1F | 96
NS(=O)(=O)c1ccc(Nc2nc(Nc3ccccc3)nc3nnc(SCC(=O)NC4CCCCC4)n23)cc1 | 106
C=CCn1c(SCC(=O)Nc2ccc(C(=O)/C=C/c3ccc(C)cc3)cc2)nnc1-c1c[nH]c2ccccc12 | 97.3
O=C(NNc1nc2cc(F)c(F)cc2n2c(CN3CC4CNCC4C3)ccc12)c1ncccn1 (centres undefined) | 9.68
COc1ccc2c(c1)Oc1nc(N)c(C#N)c(N)c1C2Sc1ccc(C)cc1 (centres undefined) | -36.4

Report growth for each item below.
1. CC(=O)Nc1cccc(Nc2nc(N[C@H](C)c3ccccc3)c3ccccc3n2)c1
2. COc1ccc(NC2=C(Cl)C(=O)c3nc(C)ccc3C2=O)cc1OC

Result string:
1: 73.6; 2: 100

====

Test system: A549/ATCC NSCLC
Run description: NCI-60 one-dose screen, 48 h (100 = growth as untreated, 0 = no growth, -100 = all killed)
Applied conditions: 10 µM unless noted
About 83,000 compounds went through this panel and 20% of them were active in at least one assay; those are over-represented in the sample as a whole.
Parameter: growth (%)
Give bare numbers, in %.

Report growth for each item below.
1. COc1ccc(/C=N/NC2=NC3C(S2)N(C)C(=O)N3C)cc1 (stereo not given)
2. C=CCn1c(-c2nc3ccc(C(=C(C#N)C#N)c4ccccc4)cc3[nH]2)cc2cc(Br)ccc21
3. CC(=O)Nc1cccc(Nc2nc(N[C@H](C)c3ccccc3)c3ccccc3n2)c1
4. COc1ccc([C@H]2c3[nH]c4ccccc4c3C[C@H]3C(=O)N(C4CCN(Cc5c(Cl)cccc5Cl)CC4)CC(=O)N23)c(OC)c1
5. C#Cc1nc(/C=C/C(=O)c2nccn2C)cs1

Result string:
1. 48.6
2. 51.7
3. 40.7
4. 91.1
5. -3.96

====

Test system: UACC-62 melanoma
Run description: NCI-60 one-dose screen, 48 h
Applied conditions: 10 µM unless noted
Compounds without any hit were thinned out: in the full panel of roughly 83,000, 20% have a hit. Active and inactive are the calls of the source. How the source made its calls: active means growth percent below 10; inactive means the rest.
Select the correct class. Options are yes (1) for active, no (0) for inactive and nothing else.

Cc1nn(-c2ccccc2)c2ncnc(N/N=C/c3cccc(O)c3)c12 | no (0)
N#Cc1c(-c2cccs2)cc(-c2cnccn2)nc1SCC(=O)c1ccc(F)cc1 | no (0)
C=CCn1c(SCC(=O)Nc2ccc(C(=O)/C=C/c3ccc(C)cc3)cc2)nnc1-c1c[nH]c2ccccc12 | no (0)
C[C@@H](Nc1ncnc2ccc(-c3cnc(Cl)c(NS(C)(=O)=O)c3)cc12)c1ccccc1 | no (0)

Consider now this further molecule.
Query string: Field: outcome | Entry: CN1CCN(Cc2ccc(NC(=O)c3cncc(C#Cc4cnc5ccc(OCC6(C)COC6)nn45)c3)cc2C(F)(F)F)CC1
Result string: yes (1)

====

System: KM12 colon
Run description: NCI-60 one-dose screen, 48 h (100 = growth as untreated, 0 = no growth, -100 = all killed)
Applied conditions: 10 µM unless noted
Procedure: Growth inhibition of the KM12 human tumor cell line is measured as a screen for anti-cancer activity. Cells are grown in 96 well plates and exposed to the test compound for 48 hours. Compounds are tested at a single concentration, which is 10^-5 M for most compounds. The reported endpoint is percent growth (GI% or GIPRCNT), where numbers from 0 - 100% represent growth inhibition, and numbers from -100% - 0 represent cell death. For example, a value of 40 represents 60% growth inhibition. […]
About 83,000 compounds went through this panel and 20% of them were active in at least one assay; those are over-represented in the sample as a whole. Active and inactive are the calls of the source. Rule for the calls: active = growth percent below 10; inactive = the rest.
Parameter: growth

Worked examples follow.
COc1ccc(CCN2C(=O)CSC2=S)cc1 | 6.12% (active)
CCO/C=N/C1=C(C#N)C(c2ccc(OC)cc2)c2sc3c(CC)cccc3c2O1 (stereo not given) | 18.9% (inactive)
CC(C)(C)n1cc(-c2ccnc(NCCCNS(=O)(=O)c3cccc(F)c3)n2)c(-c2ccc(Cl)c(O)c2)n1 | 92.9% (inactive)

Report growth for each item below.
1. COc1ccc(/C(N)=N/C(N)=N/c2nc3ccccc3s2)cc1
2. O=C(/C=C/c1ccc(F)cc1)c1ccc(O)cc1
3. COc1cc2c(cc1OC)C(Sc1ccc(C)cc1)c1c(nc(N)c(C#N)c1N)O2 (stereo not given)
4. Nc1ncc(-c2ccc3ncnc(N4CCc5cc(F)c(F)cc54)c3c2)cn1
5. O=C(CSc1nc2ccccc2c(=O)n1-c1ccc(Cl)cc1)N/N=C/c1ccc(N2CCCCC2)cc1

Result string:
-11.5% (active)
59.3% (inactive)
-52.5% (active)
45.3% (inactive)
96.4% (inactive)

Report growth for each item below.
1. Cn1ccnc1C(=O)/C=C/c1ccc(NC(=O)c2c(F)c(F)c(F)c(F)c2F)cc1
2. COc1cc(-c2nn(C(C)(C)C)cc2-c2ccnc(NCCCNS(=O)(=O)c3ccccc3)n2)ccc1Cl

Result string:
["105% (inactive)", "86.5% (inactive)"]
